Literature roundup of Glycogen synthase kinase-3 alpha (Homo sapiens) data, read-out IC50.
recorded_endpoint: IC50 (nM)

Look over these answered cases.
compound_structure | tested_on | endpoint_unit | result_value
COc1ccc(Nc2nccc(Oc3ccc(NC(=O)Nc4cc(C(C)(C)C)cc(P(C)(C)=O)c4OC)c4ccccc34)n2)cc1 | Glycogen synthase kinase-3 alpha (Homo sapiens) | nM | 779
CC(C)(C)c1cc(NC(=O)Nc2ccc(Oc3ccnc(Nc4ccc5c(c4)NC(=O)C5)n3)c3ccccc23)n(-c2ccc(P(C)(C)=O)cc2)n1 | Glycogen synthase kinase-3 alpha (Homo sapiens) | nM | 294
CC(C)(C)c1cc(NC(=O)Nc2ccc(Oc3ccnc(Nc4cccc(OCCN5CCOCC5)c4)n3)c3ccccc23)n(-c2ccc(P(C)(C)=O)cc2)n1 | Glycogen synthase kinase-3 alpha (Homo sapiens) | nM | 74

[1] COc1cc(Nc2nccc(Oc3ccc(NC(=O)Nc4cc(C(C)(C)C)cc(NS(C)(=O)=O)c4OC)c4ccccc34)n2)cc(OCCOCCOCCO)c1
[2] COc1c(NC(=O)Nc2ccc(Oc3ccnc(Nc4cnccn4)c3)c3ccccc23)cc(C(C)(C)C)cc1P(C)(C)=O
[3] O=C(Nc1cnccc1N1CCOCC1)c1ccnn2cc(-c3ccccc3)nc12
[4] COc1cc(Nc2nccc(Oc3ccc(NC(=O)Nc4cc(C(C)(C)C)cc(NS(C)(=O)=O)c4OC)c4ccccc34)n2)cc(OCCOCCOCCN2CCOCC2)c1
Please list the entries, largest IC50 first. Please list each label once, in the requested order. 4, 1, 2, 3

[1] COCCOCCOCCNC(=O)c1cc(Nc2nccc(Oc3ccc(NC(=O)Nc4cc(C(C)(C)C)nn4-c4ccc(N(C)C)cc4)c4ccccc34)n2)cc(OC)c1
[2] CC(C)(C)c1cc(NC(=O)Nc2ccc(Oc3ccnc(Nc4ccc(P(C)(C)=O)cc4)n3)c3ccccc23)n(-c2ccc(P(C)(C)=O)cc2)n1
Please let me know which one, 1 or 2 , has a lower measured IC50 value. # reply format: chosen label 2
(2: 163 nM, 1: 646 nM)

###

# merged literature set: IC50 with Glycogen synthase kinase-3 alpha (Homo sapiens, UniProt P49840)
recorded_endpoint: IC50 (µM)

Please review the entries below; each comes with its answer.
compound | IC50 [µM]
O=C(Nc1cnccc1OCC(F)(F)F)c1ccnc(Nc2cnn(-c3cc(F)ccc3F)c2)n1 | 0.00017
COCCOCCOc1cc(Nc2nccc(Oc3ccc(NC(=O)Nc4cc(C(C)(C)C)cc(NS(C)(=O)=O)c4OC)c4ccccc34)n2)cc(OC)c1 | 2.09
COc1cc(Nc2nccc(Oc3ccc(NC(=O)Nc4cc(C(C)C)nn4-c4cccc(CP(C)(C)=O)c4)c4ccccc34)n2)cc(OCCN2CCOCC2)c1 | 2.23

[1] COc1cc(Nc2nccc(Oc3ccc(NC(=O)Nc4cc(C(C)(C)C)cc(NS(C)(=O)=O)c4OC)c4ccccc34)n2)cc(C(=O)C2CC2)c1
[2] COc1c(NC(=O)Nc2ccc(Oc3ccnc(Nc4ccccc4)n3)c3ccccc23)cc(C(C)(C)C)cc1[S+](C)[O-] (stereo not shown)
Two entries are listed, 1 and 2 . Which one carries the higher IC50? Select an item and report its label. 1

[a] CNC(=O)c1cc(CN2CCN(C)CC2)cc(Nc2cc(Oc3ccc(NC(=O)Nc4cc(C(C)(C)C)cc(P(C)(C)=O)c4OC)c4ccccc34)ccn2)c1
[b] COc1cc(Nc2cc(Oc3ccc(NC(=O)Nc4cc(C(C)(C)C)cc(NS(C)(=O)=O)c4OC)c4ccccc34)ccn2)ccc1C(=O)NCCN1CCC(F)(F)CC1
// max by IC50 over [ a , b ] Your choice should be expressed through its label. b

###

pIC50: −log10 of the molar value.
Collected literature values of pIC50 measured for UniProt:P49840.
recorded_endpoint: pIC50

compound_structure | tested_on | pIC50
COCCOCCOCCOc1cc(Nc2nccc(Oc3ccc(NC(=O)Nc4cc(C(C)(C)C)cc(NS(=O)(=O)C5CCCCC5)c4OC)c4ccccc34)n2)cc(OC)c1 | UniProt:P49840 | 4.95

[A] COc1ccc(Nc2nccc(Oc3ccc(NC(=O)Nc4cc(C(C)(C)C)cc(P(C)(C)=O)c4OC)c4ccccc34)n2)cc1OC
[B] COCCOCCOCCOc1cc(Nc2nccc(Oc3ccc(NC(=O)Nc4cc(C(C)(C)C)cc(NS(=O)(=O)N5CCOCC5)c4OC)c4ccccc34)n2)cc(OC)c1
[C] COc1cc(Nc2cc(Oc3ccc(NC(=O)Nc4cc(C(C)(C)C)cc(NS(C)(=O)=O)c4OC)c4ccccc34)ccn2)ccc1C(=O)N(C)CCCN1CCOCC1
Ascending by pIC50, please: list the compounds accordingly. Respond with an ordered listing of the labels, as requested. B, C, A

###

Dear all, I have gathered published IC50 values for Glycogen synthase kinase-3 alpha (Homo sapiens); the list follows.
recorded_endpoint: IC50 (nM)

molecule | endpoint_unit | IC50
C[C@@H]1COCCN1c1ccncc1NC(=O)c1ccnn2cc(-c3ccccc3)nc12 | nM | 1
CC(C)(C)c1cc(NC(=O)Nc2ccc(Oc3ccnc(NCCCO)n3)c3ccccc23)n(-c2ccc(P(C)(C)=O)cc2)n1 | nM | 211

[A] COc1cc(Nc2cc(Oc3ccc(NC(=O)Nc4cc(C(C)(C)C)cc(NS(C)(=O)=O)c4OC)c4ccccc34)ccn2)ccc1C(=O)NCC1CCN(C)CC1
[B] CC1CN(c2ccncc2NC(=O)c2ccnn3cc(-c4ccccc4)nc23)CCO1 (single isomer, unassigned)
Which entry has a larger number for IC50, A or B ? Please respond with the label that marks your chosen entry. A

###

pIC50: −log10 of the molar value.
Assembled from different publications: pIC50 for Glycogen synthase kinase-3 alpha (Homo sapiens).
recorded_endpoint: pIC50

compound_structure | tested_on | pIC50
COCCOCCOC[C@H](C)NC(=O)c1ccc(Nc2cc(Oc3ccc(NC(=O)Nc4cc(C(C)(C)C)cc(NS(C)(=O)=O)c4OC)c4ccccc34)ccn2)cc1OC | Glycogen synthase kinase-3 alpha (Homo sapiens) | 5.36

[P] COc1cc(C#N)cc(Nc2cc(Oc3ccc(NC(=O)Nc4cc(C(C)(C)C)cc(CC(N)=O)c4OC)c4ccccc34)ccn2)c1
[Q] CC(C)(C)c1cc(NC(=O)Nc2ccc(Oc3ccnc(Nc4ccc5[nH]c(=O)oc5c4)n3)c3ccccc23)n(-c2ccc(OCCN3CCOCC3)cc2)n1
Short answer wanted: higher pIC50, P or Q ? In your reply, give the label of the chosen option. Q

###

// compounds with pIC50 on UniProt P49840, multi-source literature
pIC50: −log10 of the molar value.
recorded_endpoint: pIC50

[P] CC1CN(c2ccncc2NC(=O)c2ccnn3cc(C4CC4)nc23)CCO1 (centres unmarked)
[Q] COc1c(NC(=O)Nc2ccc(Oc3ccnc(Nc4ccc5c(c4)OCCO5)n3)c3ccccc23)cc(C(C)(C)C)cc1P(C)(C)=O
Pick one: P or Q . Which one has the lower reported pIC50? Write down the label attached to your selection. Q

[P] COCCOCCOCCOc1cc(Nc2nccc(Oc3ccc(NC(=O)Nc4cc(C(C)(C)C)cc(C(N)=O)c4OC)c4ccccc34)n2)cc(OC)c1
[Q] COCCOCCOCCNC(=O)c1cc(Nc2cc(Oc3ccc(NC(=O)Nc4cc(C(C)(C)C)nn4-c4cccc(CP(C)(C)=O)c4)c4ccccc34)ccn2)cc(OC)c1
[R] COCCOCCOCCOc1cc(Nc2cc(Oc3ccc(NC(=O)Nc4cc(C(C)(C)C)nn4C)c4ccccc34)ccn2)cc(OC)c1
Exam item: list the entries in increasing order of pIC50. In your reply, arrange the labels in the requested order. R, Q, P

[I] CCP(=O)(CC)c1ccc(-n2nc(C(C)(C)C)cc2NC(=O)Nc2ccc(Oc3ccnc(Nc4ccccc4)n3)c3ccccc23)cc1
[II] CC(C)(C)c1cc(NC(=O)Nc2ccc(Oc3ccnc(Nc4ccccc4)n3)c3ccccc23)n(-c2cccc(CP(C)(C)=O)c2)n1
[III] Cc1cc2cc(Nc3nccc(Oc4ccc(NC(=O)Nc5cc(C(C)(C)C)nn5-c5ccc(OCCN6CCOCC6)cc5)c5ccccc45)n3)ccc2[nH]1
Thanks in advance: please rank these 3 entries by pIC50, highest to lowest. Please respond with the labels ordered as the question requires. I, II, III
(I: 6.09, II: 5.78, III: 5.55)

[P] COc1c(NC(=O)Nc2ccc(Oc3ccnc(NCc4ccccn4)c3)c3ccccc23)cc(C(C)(C)C)cc1[S+](C)[O-] (centres unmarked)
[Q] COc1c(CC(N)=O)cc(C(C)(C)C)cc1NC(=O)Nc1ccc(Oc2ccnc(Nc3ccn(C)n3)c2)c2ccccc12
Please choose the item with the lower pIC50 value from this pair: P and Q Refer to your chosen entry by its label in the reply. P

[I] O=C(Nc1cnc(F)cc1N1CCC(F)(F)CC1)c1ccnn2cc(-c3ccccc3)nc12
[II] CC(C)(C)c1cc(NC(=O)Nc2ccc(Oc3ccnc(Nc4ccc5[nH]ncc5c4)n3)c3ccccc23)n(-c2cccc(OCCN3CCOCC3)c2)n1
Hi, I'm comparing I with II and wondering which one has the bigger number for pIC50. Any idea? Your answer should be the label attached to the chosen record. I
